# CLH per entry
Test: Intrinsic clearance in mouse liver microsomes assessed per mg protein
Format: ADME, Microsome
Quick note: give the figure in µL/min, leave out the unit.

query: Sample COc1cc(C)[nH]c(=O)c1CNC(=O)c1c(C)n([C@H](C)C2CCN(CC(F)F)CC2)c2ccccc12 — what was its CLH?
result: 131

query: Sample COc1cc(C)[nH]c(=O)c1CNC(=O)c1c(C)n([C@H](C)C2CCN(CCC(F)(F)F)CC2)c2ccccc12 — what was its CLH?
result: 61.3

query: Sample COc1cc(C)[nH]c(=O)c1CNC(=O)c1c(C)n([C@H](C)C2CCN(CC(C)(F)F)CC2)c2ccccc12 — what was its CLH?
result: 193

query: Sample COc1cc(C)[nH]c(=O)c1CNC(=O)c1c(C)n([C@H](C)C2CCN(CC(F)(F)F)CC2)c2ccccc12 — what was its CLH?
result: 159

---

Measurement Target: Voltage-gated inwardly rectifying potassium channel KCNH2 (Homo sapiens)
Sequence (Q12809 whole entry): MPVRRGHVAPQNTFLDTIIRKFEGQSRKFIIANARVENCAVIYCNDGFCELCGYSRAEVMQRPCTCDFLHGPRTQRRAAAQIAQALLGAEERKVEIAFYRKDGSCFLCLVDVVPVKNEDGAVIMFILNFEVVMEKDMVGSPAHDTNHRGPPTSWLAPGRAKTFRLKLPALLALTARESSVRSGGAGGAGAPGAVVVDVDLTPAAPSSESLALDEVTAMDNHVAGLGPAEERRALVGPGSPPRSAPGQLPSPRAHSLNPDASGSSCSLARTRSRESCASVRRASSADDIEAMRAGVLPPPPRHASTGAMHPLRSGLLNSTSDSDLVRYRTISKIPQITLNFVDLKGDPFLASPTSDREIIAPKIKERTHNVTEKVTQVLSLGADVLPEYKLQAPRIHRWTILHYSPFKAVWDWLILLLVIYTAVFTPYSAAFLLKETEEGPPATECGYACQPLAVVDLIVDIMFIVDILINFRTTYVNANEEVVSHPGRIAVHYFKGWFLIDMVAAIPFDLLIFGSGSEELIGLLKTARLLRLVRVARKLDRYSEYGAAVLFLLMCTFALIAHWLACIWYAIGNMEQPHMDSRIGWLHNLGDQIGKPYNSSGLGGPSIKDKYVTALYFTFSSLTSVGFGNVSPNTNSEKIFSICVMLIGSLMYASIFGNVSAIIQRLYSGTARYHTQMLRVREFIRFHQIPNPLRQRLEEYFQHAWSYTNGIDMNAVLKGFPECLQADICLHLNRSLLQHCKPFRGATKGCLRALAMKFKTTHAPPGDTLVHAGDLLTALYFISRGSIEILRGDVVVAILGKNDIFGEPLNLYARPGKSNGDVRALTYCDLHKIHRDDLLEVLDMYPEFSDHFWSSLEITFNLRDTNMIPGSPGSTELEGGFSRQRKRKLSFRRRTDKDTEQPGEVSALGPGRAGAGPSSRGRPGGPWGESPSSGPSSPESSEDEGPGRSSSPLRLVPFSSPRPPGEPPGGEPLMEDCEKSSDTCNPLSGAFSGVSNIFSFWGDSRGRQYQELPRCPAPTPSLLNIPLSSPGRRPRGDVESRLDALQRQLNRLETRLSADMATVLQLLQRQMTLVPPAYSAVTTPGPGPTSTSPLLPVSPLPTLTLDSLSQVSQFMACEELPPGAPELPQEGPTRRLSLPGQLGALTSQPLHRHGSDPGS
Measurement Label: IC50 (µM)
Quick note: give the figure in µM, leave out the unit.

query: Observed IC50 on Voltage-gated inwardly rectifying potassium channel KCNH2 (Homo sapiens) for COc1cc(C)[nH]c(=O)c1CNC(=O)c1c(C)n([C@H](C)C2CCN(CC(F)(F)F)CC2)c2ccccc12 [CPI-1205] , please.
result: 21.3

---

Test: Intrinsic clearance in dog liver microsomes assessed per mg protein
Format: ADME, Canis lupus familiaris, Microsome
Measurement Label: CLH
Answer with the figure and its unit, nothing else.

Use the examples below as a reference point.
Molecule: COc1cc(C)[nH]c(=O)c1CNC(=O)c1c(C)n([C@H](C)C2CCN(CCC(F)(F)F)CC2)c2ccccc12
CLH: 35.3 µL/min
//
Molecule: COc1cc(C)[nH]c(=O)c1CNC(=O)c1c(C)n([C@H](C)C2CCN(CC(F)(F)F)CC2)c2ccccc12 [CPI-1205]
CLH: 73.9 µL/min
//
Molecule: COc1cc(C)[nH]c(=O)c1CNC(=O)c1c(C)n([C@H](C)C2CCN(CC(F)F)CC2)c2ccccc12
CLH: 52.4 µL/min

Next item in the queue.
query: Sample COc1cc(C)[nH]c(=O)c1CNC(=O)c1c(C)n([C@H](C)C2CCN(CC(C)(F)F)CC2)c2ccccc12 — what was its CLH?
result: 68.9 µL/min

---

Measurement Target: UniProt P10632
Sequence (P10632 whole entry): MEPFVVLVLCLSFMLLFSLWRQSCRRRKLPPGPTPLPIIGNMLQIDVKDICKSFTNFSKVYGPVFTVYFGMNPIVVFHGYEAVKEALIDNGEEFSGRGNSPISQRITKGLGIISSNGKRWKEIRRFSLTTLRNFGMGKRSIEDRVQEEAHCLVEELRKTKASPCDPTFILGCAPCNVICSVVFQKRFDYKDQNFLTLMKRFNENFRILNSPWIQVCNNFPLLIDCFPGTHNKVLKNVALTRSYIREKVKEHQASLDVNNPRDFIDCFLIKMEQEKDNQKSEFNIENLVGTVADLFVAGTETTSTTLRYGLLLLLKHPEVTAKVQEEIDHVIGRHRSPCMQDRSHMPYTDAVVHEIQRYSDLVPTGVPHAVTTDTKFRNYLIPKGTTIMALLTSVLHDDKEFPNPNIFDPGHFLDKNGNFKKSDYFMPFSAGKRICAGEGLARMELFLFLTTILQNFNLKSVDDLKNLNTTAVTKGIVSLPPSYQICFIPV
Test: Inhibition of CYP2C8 (unknown origin) at 10 uM relative to control
Type: ADME
Measurement Label: inhibition at 10 µM (%)
Quick note: give the figure in %, leave out the unit.

Use the examples below as a reference point.
Compound: COc1cc(C)[nH]c(=O)c1CNC(=O)c1c(C)n([C@H](C)C2CCN(CCC(F)(F)F)CC2)c2ccccc12
inhibition at 10 µM (%): 23.1
--
Compound: COc1cc(C)[nH]c(=O)c1CNC(=O)c1c(C)n([C@H](C)C2CCN(CC(F)F)CC2)c2ccccc12
inhibition at 10 µM (%): 18.9
--
Compound: COc1cc(C)[nH]c(=O)c1CNC(=O)c1c(C)n([C@H](C)C2CCN(CC(C)(F)F)CC2)c2ccccc12
inhibition at 10 µM (%): 50.9

query: Sample COc1cc(C)[nH]c(=O)c1CNC(=O)c1c(C)n([C@H](C)C2CCN(CC(F)(F)F)CC2)c2ccccc12 [CPI-1205] — what was its inhibition at 10 µM?
result: 41
